Property: abundance fitness; scope: individual variants
B1: Ankyrin-1, residues 1405 to 1484; numbered along this chain, P16157 (parent)
chain: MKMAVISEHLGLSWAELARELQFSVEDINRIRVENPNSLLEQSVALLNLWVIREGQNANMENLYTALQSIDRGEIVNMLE

Variants of: B1
Assay name: abundance fitness (aPCA) (normalised: wild type 0, dead -1); higher = more abundant; growth selection in yeast, the domain comes from the species named
Condition label: Homo sapiens
Please respond with just the number, no unit label.

N59L
-0.2
E41R
0.054
F23R
-0.833
R72P
-0.226
E54G
-0.115

QUERY: Which abundance fitness reading was recorded for the variant M78W ?
RESULT: -0.19

QUERY: Name the reported abundance fitness value associated with the variant V25G
RESULT: -0.119
